tested on: S. Marcescens GC1781 Sme-1 + Ampc; assay: Antimicrobial susceptibility testing, microbroth dilution MIC of piperacillin + inhibitor; assay type: cell-based; details: piperacillin combined with constant 4 μg/ml inhibitor; Inc: 35° C. for 18 hours
PROPERTY_LABEL: Minimal Inhibitory Concentration S. Marcescens GC1781 Sme-1 + Ampc (µg/mL)
Entry rule: numbers only, all in µg/mL.

Could you share what Minimal Inhibitory Concentration S. Marcescens GC1781 Sme-1 + Ampc was measured for O=C(O)C1=CS[C@@H]2/C(=C\c3cn4c5c(sc4n3)COCC5)C(=O)N12 [Example 15] , tested on S. Marcescens GC1781 Sme-1 + Ampc?
1

Could you share what Minimal Inhibitory Concentration S. Marcescens GC1781 Sme-1 + Ampc was measured for O=C(O)C1=CS[C@@H]2/C(=C\c3ccc4c(c3)sc3nccn34)C(=O)N12 [Example 16] , tested on S. Marcescens GC1781 Sme-1 + Ampc?
1

Could you share what Minimal Inhibitory Concentration S. Marcescens GC1781 Sme-1 + Ampc was measured for CCOC(=O)N1CCc2c(oc3cc(/C=C4/C(=O)N5C(C(=O)[O-])=CS[C@H]45)nn23)C1.[Na+] [Example 33] , tested on S. Marcescens GC1781 Sme-1 + Ampc?
2

---

biological target: class A β-lactamase Imi-1 (Enterobacter cloacae); experiment: β-Lactamase inhibition, IC50 determination (nitrocefin, spectrophotometric); type: biochemical
Sequence (Q46991 entry or part of it): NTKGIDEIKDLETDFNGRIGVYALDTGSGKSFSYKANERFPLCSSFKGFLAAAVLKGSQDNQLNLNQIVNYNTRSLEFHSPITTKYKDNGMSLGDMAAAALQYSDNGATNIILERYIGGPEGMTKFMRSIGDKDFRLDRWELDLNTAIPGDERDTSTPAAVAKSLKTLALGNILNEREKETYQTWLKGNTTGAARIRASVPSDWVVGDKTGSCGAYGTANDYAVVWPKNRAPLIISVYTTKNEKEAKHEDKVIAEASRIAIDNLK
Where a name gives a salt, the structure may show the parent alone.
Kindly supply the reported pIC50 values for the records listed here.
Scale note: pIC50 = -log10(concentration in M).

Name the recorded pIC50 for O=C(O)C1=CS[C@@H]2/C(=C\c3cc4oc5c(n4n3)CCOC5)C(=O)N12 [Example 31, sodium salt] .
6.85

Name the recorded pIC50 for COc1nc2nc(/C=C3/C(=O)N4C(C(=O)O)=CS[C@H]34)cn2c2c1CCC2 [Example 26, sodium salt] .
7.20

Name the recorded pIC50 for "Cc1cccc2sc3nc(/C=C4/C(=O)N5C(C(=O)O)=CS[C@H]45)cn3c12" .
6.99

---

biological target: class A β-lactamase TEM-1 (Escherichia coli, UniProt P62593); test: β-Lactamase inhibition, IC50 determination (nitrocefin, spectrophotometric); assay type: biochemical, E. Coli
Sequence (P62593 24-286 limits assumed): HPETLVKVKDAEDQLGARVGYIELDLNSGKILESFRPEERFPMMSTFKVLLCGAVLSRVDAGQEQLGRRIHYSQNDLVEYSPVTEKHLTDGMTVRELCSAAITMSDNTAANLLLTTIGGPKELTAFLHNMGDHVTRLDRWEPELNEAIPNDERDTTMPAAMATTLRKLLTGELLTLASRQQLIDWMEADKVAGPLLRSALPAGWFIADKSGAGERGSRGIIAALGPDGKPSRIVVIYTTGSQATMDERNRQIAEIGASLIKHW
Counter-ions that a name gives are not always drawn.
Kindly supply the reported log10 IC50 values for the records listed here.
Note: values are log10 of IC50 expressed in nM.

Name the recorded log10 IC50 for O=C(O)C1=CS[C@@H]2/C(=C\c3cc4oc5c(n4n3)CCOC5)C(=O)N12 [Example 31, sodium salt] .
0.63

Name the recorded log10 IC50 for "O=C(O)C1=CS[C@@H]2/C(=C\c3cn4c(ccc5ccccc54)n3)C(=O)N12" .
0.78

Name the recorded log10 IC50 for O=C([O-])C1=CS[C@@H]2/C(=C\c3ccc4nc5n(c4c3)CCCS5)C(=O)N12.[Na+] [Example 29, sodium salt] .
1.18

Name the recorded log10 IC50 for CCOc1nc2nc(C=C3C(=O)N4C(C(=O)O)=CSC34)cn2c2c1CCC2 (centres unmarked) .
1.68

Name the recorded log10 IC50 for "O=C(O)C1=CS[C@@H]2/C(=C/c3ccc4c(c3)N(Cc3ccccc3)C(=O)c3ccccc3O4)C(=O)N12" .
0.54

Name the recorded log10 IC50 for O=C(O)C1=CS[C@@H]2/C(=C\c3cn4c(n3)nc3n4CCCC3)C(=O)N12 [Example 8, sodium salt] .
0.38

Name the recorded log10 IC50 for O=C([O-])C1=CS[C@@H]2/C(=C\c3ccc4nc5n(c4c3)CCS5)C(=O)N12.[Na+] [Example 28, sodium salt] .
0.51

Name the recorded log10 IC50 for "Cc1cccc2sc3nc(/C=C4/C(=O)N5C(C(=O)O)=CS[C@H]45)cn3c12" .
0.94
